Taken from patent US20060014740A1.

Below, each of the molecules is paired with its reported IC50 value.
# Test system: SKOv-3 human ovarian cancer cell line
# Procedure text: SRB cytotoxicity assay, SKOv-3
# Type: cell-based
# Run parameters: Homo sapiens, SK-OV-3; Table 8
Structures can show the parent of a compound that is named as a salt.
Attribute measured: IC50 (µM)

• CCCCCCCNC(=O)[C@@H]1CSC(c2ccccc2)N1 (mixture of isomers) [Compound 3-HCI, Hydrochloride] = 47.8
• CCCCCCCCCCCCCCCCCCNC(=O)[C@@H]1CSC(c2ccc(NC(C)=O)cc2)N1.Cl (mixture of isomers) [Compound 18-HCI, Hydrochloride] = 2.6
• CCCCCCCCCCCCCCCCCCNC(=O)[C@@H]1CSC(c2ccc(F)cc2)N1 (mixture of isomers) = 4.2
• Cl.O=C(O)[C@@H]1CSC(c2ccoc2)N1 (mixture of isomers) [Compound 12-HCI, Hydrochloride] = 5.4

----------
# System: RH7777 rat hepatoma cells
# Procedure text: SRB cytotoxicity assay, RH7777 control cell line
# Format: cell-based
# Run parameters: Rattus norvegicus, RH7777; Example 10 table; 0 to 100 μM for 96 h; read-out: IC50 RH7777
pIC50: −log10 of the molar value. Where a name gives a salt, the structure may show the parent alone.
Rule: pIC50 of 5 or more gives satisfied; anything lower gives not satisfied.

• CCCCCCCNC(=O)[C@@H]1CSC(c2ccccc2)N1 (mixture of isomers) [Compound 3-HCI, Hydrochloride] = not satisfied
• CCCCCCCCCCCCCCCCCCNC(=O)[C@@H]1CSC(c2ccccc2)N1.Cl (mixture of isomers) [Compound 5-HCI, Hydrochloride] = not satisfied
• CCCCCCCCCCCCCCCCCCCCNC[C@@H](N)CO [S4] = satisfied
• CCCCCCCCCCCCCCNC(=O)[C@@H]1CSC(c2ccccc2)N1.Cl (mixture of isomers) [Compound 4-HCI, Hydrochloride] = satisfied
• CCCCCCCCCCCCCCCCCCNC(=O)[C@H]1CSC(c2ccccc2)N1 (stereo partly drawn) [5-HCI (S)] = not satisfied

----------
# Tested on: PC-3 human prostate cancer cells
# Procedure text: SRB cytotoxicity assay, PC-3
# Assay type: cell-based
# Run parameters: Table 3; 96 h; read-out: IC50 PC-3
pIC50: −log10 of the molar value. Counter-ions that a name gives are not always drawn.
Attribute measured: pIC50

* CCCCCCCCCCCCCCCCCCNC(=O)[C@@H]1CSC(c2ccc(OC)c(OC)c2)N1 (mixture of isomers) [Compound 16-HCI, Hydrochloride] | 5.28

----------
# Tested on: TSU-Pr1 human prostate cancer cells
# Procedure text: SRB cytotoxicity assay, TSU-Pr1
# Type: cell-based
# Run parameters: Homo sapiens, TSU-Pr1; Table 3; 96 h; read-out: IC50 TSU-Pr1
Structures can show the parent of a compound that is named as a salt.
Could you mark each record y if its IC50 falls strictly under 4 µM, and n if it equals or exceeds it?

- CCCCCCCCCCCCCCCCCCNC(=O)[C@@H]1CSC(c2c[nH]c3ccccc23)N1 (mixture of isomers): n
- CCCCCCCCCCCCCCCCCCNC(=O)[C@@H]1CSC(CCCCCCCCCCCC)N1 (mixture of isomers): n
- CCCCCCCCCCCCCCCCCCNC(=O)[C@@H]1CSC(c2ccc(N(C)C)cc2)N1 (mixture of isomers): y
- CCCCCCCCCCCCCCCCCCNC(=O)[C@@H]1CSC(c2cccnc2)N1 (mixture of isomers): n
- Cl.O=C(O)[C@@H]1CSC(c2ccoc2)N1 (mixture of isomers) [Compound 12-HCI, Hydrochloride]: n
- CCCCCCCCCCCCCCCCCCNC(=O)[C@@H]1CSC(c2cc(OC)c(OC)c(OC)c2)N1 (mixture of isomers) [Compound 17-HCI, Hydrochloride]: y
- CCCCCCCCCCCCCCCCCCNC(=O)[C@@H]1CSC(Cc2ccccc2)N1 (mixture of isomers): n
- CCCCCCCCCCCCCCCCCCNC(=O)[C@@H]1CSC(C2CCCCC2)N1 (mixture of isomers): n

----------
Attribute measured: melting point (°C)

* CCCCCCCCCCCCCCCCCCNC(=O)[C@@H]1CSC(C2CCCCC2)N1 (mixture of isomers) | 60
* CCCCCCCCCCCCCCCCCCNC(=O)[C@@H]1CSC(c2ccc(C)cc2)N1 (mixture of isomers) | 120
* CCCCCCCCCCCCCCCCCCNC(=O)[C@@H]1CSC(c2ccc(Br)cc2)N1 (mixture of isomers) | 81
* CCCCCCCCCCCCCCCCCCNC(=O)[C@@H]1CSC(Cc2ccccc2)N1 (mixture of isomers) | 80
* CCCCCCCCCCCCCCCCCCNC(=O)[C@@H]1CSC(c2cc(F)cc(F)c2)N1 (mixture of isomers) | 113
* CCCCCCCCCCCCCCCCCCNC(=O)[C@@H]1CSC(c2ccccc2)N1C(C)=O (mixture of isomers) | 90

----------
# Tested on: DU-145 human prostate cancer cells
# Procedure text: SRB cytotoxicity assay, DU-145
# Format: cell-based
# Run parameters: Homo sapiens, DU-145, read-out: IC50 DU-145; Table 3; 96 h
Counter-ions that a name gives are not always drawn.
Below, each of the molecules is paired with its reported IC50 value.
Attribute measured: IC50 (µM)

* CCCCCCCCCCCCCCCCCCNC(=O)[C@@H]1CSC(CCCCCCCCCCCC)N1 (mixture of isomers) | 8.9
* CCCCCCCCCCCCCCCCCCNC(=O)[C@@H]1CSC(c2cccnc2)N1 (mixture of isomers) | 7.5
* CCCCCCCCCCCCCCCCCCNC(=O)[C@@H]1CSC(Cc2ccccc2)N1 (mixture of isomers) | 15.3
* CCCCCCCCCCCCCCCCCCNC(=O)[C@@H]1CSC(c2c[nH]c3ccccc23)N1 (mixture of isomers) | 8.9
* CCCCCCCCCCCCCCCCCCNC(=O)[C@@H]1CSC(c2ccc(N(C)C)cc2)N1 (mixture of isomers) | 5.3
* CCCCCCCCCCCCCCCCCCNC(=O)[C@@H]1CSC(c2ccc(OC)cc2)N1 (mixture of isomers) [Compound 15-HCI, Hydrochloride] | 8.7
* CCCCCCCCCCCCCCCCCCNC(=O)[C@@H]1CSC(c2cc(OC)c(OC)c(OC)c2)N1 (mixture of isomers) [Compound 17-HCI, Hydrochloride] | 3.9
* Cl.O=C(O)[C@@H]1CSC(c2ccoc2)N1 (mixture of isomers) [Compound 12-HCI, Hydrochloride] | 6.6

----------
# System: LNCaP human prostate cancer cells
# Procedure text: SRB cytotoxicity assay, LNCaP
# Type: cell-based
# Run parameters: Homo sapiens, LNCaP; Example 10 table; 96 h; read-out: IC50 LNCaP
Where a name gives a salt, the structure may show the parent alone.
Attribute measured: IC50 (µM)

* CCCCCCCCCCCCCCCCCCNC(=O)[C@H]1CSC(c2ccccc2)N1 (stereo partly drawn) [5-HCI (S)] | 6.3
* O=c1[nH]cc(F)c(=O)[nH]1 [5-FU, 5-fluorouracil, reference compound] | 4.9
* CCCCCCCCCCCCCCCCCCNC(=O)[C@@H]1CSC(c2ccccc2)N1.Cl (mixture of isomers) [Compound 5-HCI, Hydrochloride] | 2.1
* CCCCCCCCCCCCCCCCCCCCNC[C@@H](N)CO [S4] | 5.1
* CCCCCCCCCCCCCCNC(=O)[C@@H]1CSC(c2ccccc2)N1.Cl (mixture of isomers) [Compound 4-HCI, Hydrochloride] | 1.4
* CCCCCCCNC(=O)[C@@H]1CSC(c2ccccc2)N1 (mixture of isomers) [Compound 3-HCI, Hydrochloride] | 12.4

----------
# Tested on: PC-3 human prostate cancer cells
# Procedure text: SRB cytotoxicity assay, PC-3
# Assay type: cell-based
# Run parameters: Table 9; 96 h; read-out: IC50 PC-3
pIC50: −log10 of the molar value.
Attribute measured: pIC50

- CCCCCCCCNC(=O)C(CO)NC(=O)CCCCCCC (stereo not shown) [315d]: 4.09
- CCCCCCCCCCCCCCCCCCNC[C@@H](N)CO: 5.59
- CCCCCCCCC=CCCCCCCCCNC(=O)C(N)CO (stereo not shown): 5.23

----------
# System: LNCaP human prostate cancer cells
# Procedure text: SRB cytotoxicity assay, LNCaP
# Assay type: cell-based
# Run parameters: Homo sapiens, LNCaP; Example 11 table; 96 h; read-out: IC50 LNCaP
Below, each of the molecules is paired with its reported IC50 value.
Attribute measured: IC50 (µM)

• CCCCCCCCCCCCCCCCCCNC[C@@H](N)CO [drawing 52] = 3.3
• O=C(O)[C@@H]1CSC(c2ccc(-c3ccccc3)cc2)N1 (stereo partly shown) = 71
• CC(C)(C)OC(=O)N[C@H](CO)C(=O)NCCCCCCCCCCCCNC(=O)[C@@H](CO)NC(=O)OC(C)(C)C = 12.5
• CCCCCCCCCCCCC1N[C@H](C(=O)O)CS1 (stereo partly shown) = 16.1

----------
# Tested on: PPC-1 human prostate cancer cells
# Procedure text: SRB cytotoxicity assay, PPC-1
# Format: cell-based
# Run parameters: Homo sapiens, PPC-1; Example 11 table; 96 h; read-out: IC50 PPC-1
pIC50: −log10 of the molar value.
Below, each of the compounds is paired with its reported pIC50 value.
Attribute measured: pIC50

* O=C(O)[C@@H]1CSC(c2cccnc2)N1 (stereo partly drawn) | < 4.00
* CC(C)(C)OC(=O)N[C@H](CO)C(=O)NCCCCCCCCCCCCNC(=O)[C@@H](CO)NC(=O)OC(C)(C)C | < 4.70
* N#Cc1ccc(C2N[C@H](C(=O)O)CS2)cc1 (stereo partly drawn) | < 4.00
* O=C(O)[C@@H]1CSC(c2c(Cl)cccc2Cl)N1 (stereo partly drawn) | < 4.00
* CCCCCCCCCCCCC1N[C@H](C(=O)O)CS1 (stereo partly drawn) | 4.90
* CCCCCCCCCCCCCCCCCCNC[C@H](CO)NC [drawing 51] | < 4.00
* O=C(O)[C@@H]1CSC(c2cc(F)cc(F)c2)N1 (stereo partly drawn) | < 4.00
* O=C(O)[C@@H]1CSC(c2ccc(-c3ccccc3)cc2)N1 (stereo partly drawn) | < 4.00
* O=C(O)[C@@H]1CSC(c2ccc(F)cc2)N1 (stereo partly drawn) | < 4.00
